assay: NCI Yeast Anticancer Drug Screen. Data for the mlh1 rad18 strain (AID 175); conditions: S. cerevisiae mlh1 rad18 strain growth inhibition; at 50.0 µM; stronger effect = higher value
Compounds without any hit were thinned out: in the full panel of roughly 79,000, 15% have a hit.
Entries and their growth inhibition
Output spec: scalar in %, unitless text.

COMPOUND: O=S=NN(CC(Cl)c1ccccc1)CC(Cl)c1ccccc1 (stereo not drawn)
growth inhibition (%): 7.7

COMPOUND: N#CCCO
growth inhibition (%): -6.2

COMPOUND: Cc1ncc(CNC(=O)N(CCCl)N=O)c(N)n1
growth inhibition (%): 32.1

COMPOUND: CCCCOP(=O)(OCCCC)SCl
growth inhibition (%): 6

COMPOUND: CN(C)P1(=O)NCC(C(C)(C)C)CO1 (stereo not drawn)
growth inhibition (%): -16.8

Entry `CCOP(=O)(/C=C/c1cc(OC)ccc1OC)OCC` — recorded growth inhibition = -26.1

Input `O=C1CCC(=O)N1c1ccc([As](=O)(O)O)cc1` . Output growth inhibition: -16.9

Briefly, growth inhibition measured for C1C2CC3C1C1CN3C21 (stereo not drawn) : 12.2

Data credit: PubChem BioAssay (NCI)
